// compounds with reported IC50 on UniProt P23458, multi-publication

Solved entries:
compound: N#CCC1(n2ccc(-c3ncnc4[nH]ccc34)c2)CN(C2CCN(C(=O)c3c(F)cc(C#N)cc3F)CC2)C1
IC50: 5 to 20 nM
--
compound: CCOC(=O)c1cnc2[nH]ccc2c1N[C@H]1CN(C(=O)C2(C#N)CC2)CC[C@H]1C
IC50: 10 to 100 nM
--
compound: COc1cccc(C(=O)N2CCC(N3CC(CC#N)(n4cc(-c5ncnc6[nH]ccc56)cn4)C3)CC2)c1
IC50: ≤ 5 nM
--
compound: CC(C#N)Cn1cc(-c2nc(-c3ccc(N4CCOCC4)cc3)cc3nccn23)cn1 (stereo not shown)
IC50: 10 to 100 nM
--
compound: O=C(CN1CCCC1)Nc1cccc(-c2cnc3ccccc3n2)c1
IC50: > 20000 nM

Any idea what IC50 came out for `NC(=O)c1cnc(Nc2ccc3c(c2)NC[C@H](O)CO3)nc1Nc1cccc2[nH]ccc12` on UniProt P23458?
< 10 nM

Any idea what IC50 came out for O=C(Nc1nc2cccc([C@H]3CCC4(C3)CN(C(=O)[C@@H]3CC3(F)F)C4)n2n1)C1CC1 (single isomer, unassigned) on UniProt P23458?
63 nM

Any idea what IC50 came out for `C[C@@H](O)c1nc2cnc3ccsc3c2n1[C@H]1CCN(CCCC#N)C1` on UniProt P23458?
≤ 1000 nM

Any idea what IC50 came out for CC1CCOCc2cc(ccc2OC2CCCC2)Nc2nccc(n2)-c2ccc(cc2N)C(=O)NC1 (stereo not shown) on UniProt P23458?
1000 to 10000 nM

Any idea what IC50 came out for CC(C)c1ccccc1-c1cc2c(N[C@@H]3CCC[C@]3(C)F)c(C(N)=O)cnn2c1 (racemic) on UniProt P23458?
253 nM

Any idea what IC50 came out for `CN(c1ncnc2[nH]ccc12)C1CCC2(CC1)CCN(C(=O)c1cccc(OC(F)(F)F)c1)CC2` on UniProt P23458?
100 to 1000 nM

---

pIC50: −log10 of the molar value.
// molecules with reported pIC50 on Tyrosine-protein kinase JAK1 (Homo sapiens), multi-publication

Solved entries:
sampleSmiles: Cc1cnc(Nc2ccc(N3CCOCC3)c(F)c2)nc1N1CC(CC#N)(N2CCCCC2)C1
pIC50: > 7.60
//
sampleSmiles: N#CCC1(n2cc(-c3ncnc4[nH]ccc34)cn2)CN(C2CCN(C(=O)c3ccc(-c4cccc5cnccc45)c(F)c3)CC2)C1
pIC50: ≥ 8.30

Shifting focus to the molecule that follows.
Any idea what pIC50 came out for `CN(c1ncnc2[nH]ccc12)C1CCC2(CC1)CCN(C(=O)CO)CC2` on Tyrosine-protein kinase JAK1 (Homo sapiens)?
7.00 to 8.00

---

// compounds with reported IC50 on Tyrosine-protein kinase JAK1 (Homo sapiens, UniProt P23458), multi-publication

compound: Cc1ccc(NC(=O)c2cc(N3CCC(O)CC3)cc(C(F)(F)F)c2)cc1-c1ccc2c(c1)[nH]c1ncncc12
observationType: IC50
readoutValue: ≤ 500 nM
--
compound: Cc1nc(C(F)(F)F)ccc1NC(=O)N1CCC(N2CC(CC#N)(n3cc(-c4ncnc5[nH]ccc45)cn3)C2)CC1
observationType: IC50
readoutValue: 5 to 20 nM
--
compound: O=C(Nc1cc2c(Cl)cncc2s1)[C@@H]1C[C@H]1c1ccccc1
observationType: IC50
readoutValue: 350 nM
--
compound: Cc1cc(Nc2nn(C3COCCC3C#N)cc2C(N)=O)cc2c1OB(O)C=C2 (centres unmarked)
observationType: IC50
readoutValue: < 10 nM
--
compound: CN(c1ncnc2[nH]ccc12)[C@H]1CC[C@H](NC(=O)NCC(F)(F)F)CC1
observationType: IC50
readoutValue: 2.3 nM
--
compound: Cn1nc(C(=O)NCCC(F)(F)F)c2c1CCN(c1ncnc3[nH]ccc13)C2
observationType: IC50
readoutValue: < 100 nM
--
compound: Cc1c(Nc2ccc[nH]c2=O)nc(N[C@@H]2CCCN(C(=O)CC#N)C2)nc1N1CCOCC1
observationType: IC50
readoutValue: < 100 nM
--
compound: N#CCN1CCN(n2cnc3cnc4[nH]ccc4c32)CC1
observationType: IC50
readoutValue: 7.72 nM
--
compound: Nc1cc2ccc1-c1ccnc(n1)Nc1ccc(F)c(c1)COc1ccc(cc1)NC2=O
observationType: IC50
readoutValue: > 10000 nM
--
compound: N#CC[C@H]1CC[C@H](n2c(CO)nc3cnc4ccoc4c32)CO1
observationType: IC50
readoutValue: < 10 nM

Any idea what IC50 came out for `N#CCC(=O)N1CCC[C@@H](Nc2c(-c3nnc[nH]3)cnc3[nH]ccc23)C1` on Tyrosine-protein kinase JAK1 (Homo sapiens, UniProt P23458)?
10 to 100 nM

Any idea what IC50 came out for `CCc1cc(O)c(F)cc1-c1cc2[nH]nc(C(=O)NC)c2c(N[C@@H](C)c2ccccc2N(C)S(C)(=O)=O)n1` on Tyrosine-protein kinase JAK1 (Homo sapiens, UniProt P23458)?
32.3 nM

Any idea what IC50 came out for `C[C@@H](O)c1nc2cnc3ccsc3c2n1[C@H]1CCCN(C(=O)CCC#N)C1` on Tyrosine-protein kinase JAK1 (Homo sapiens, UniProt P23458)?
≤ 100 nM

Any idea what IC50 came out for Cc1nn(C)cc1Nc1ncc(Cl)c(NC2CC3CN(C(=O)CC#N)CC3C2)n1 (centres unmarked) on Tyrosine-protein kinase JAK1 (Homo sapiens, UniProt P23458)?
2 nM
